test system: SF-268; test: NCI tumour cell line growth inhibition, 48 h
The source made the active and inactive calls. Rule as the data show it: active = GI50 up to about 1.1 µM and inactive = higher.
experimentalEndpoint: GI50

compound	GI50
CSCCC(C(=O)O)N(C)C (stereo unspecified)	> 100 µM (inactive)
CNC(=O)OCc1nc(SSC(C)(C)C)n(C)c1COC(=O)NC	6.75 µM (inactive)
CC1=C(C(=O)NNC(=O)c2ccccc2)CC(C(=O)NNC(=O)c2ccccc2)=C(C)N1	> 100 µM (inactive)
COc1ccc(-c2cc(=O)c3c(OC)c(OC)c(OC)cc3o2)cc1	31.1 µM (inactive)
CSc1nc(=S)[nH]c2c1c(C)nn2-c1ccccc1	22.1 µM (inactive)

Quick one: give me GI50 for each item below, same order please.
1. COc1cc(OCc2nc3cc(C(F)(F)F)ccc3nc2-c2ccccc2)cc(OC)c1OC
2. O=C(O)c1cc2ccccc2c(/N=N/c2ccccc2)c1O
3. O=C(O)c1ccc(Nc2ccnc3cc(Cl)ccc23)cc1O
4. CN(Cc1cnc2nc(N)nc(N)c2n1)c1ccc(C(=O)NC2CCCCC2)cc1
5. COC(=O)Nc1nc2cc(NS(=O)(=O)c3ccc(F)cc3)ccc2[nH]1
6. Oc1nnc(-c2ccc(F)cc2)cc1-c1ccccc1

1: > 100 µM (inactive); 2: 30 µM (inactive); 3: > 100 µM (inactive); 4: 19 µM (inactive); 5: 72.6 µM (inactive); 6: 46.1 µM (inactive)

----------
test system: 786-0; assay: NCI tumour cell line growth inhibition, 48 h
Active and inactive are the calls of the source. No stated cut-off is given here; in the data, active = GI50 up to about 1.1 µM and inactive = higher.
Pick one and only one: Y (active), N (inactive)

Please review the entries below; each comes with its answer.
molecule	classification
COc1ccc(/C=C2\CCCCCC2=O)cc1	N
Cc1nnc2sc(NN)nn12	N
CC(C)(C)NCC(O)COc1cccc2[nH]c(C#N)cc12 (centres undefined)	N
O=C(CC1(O)C(=O)Nc2ccccc21)c1ccccc1O (centres undefined)	N
CC1OC(n2cc(Cl)c(=O)[nH]c2=O)C=C(OC(=O)c2ccccc2)C1=O (centres undefined)	N
COc1ccc(N/N=C2\C3=C(CCC(C)(C)O3)C(=O)c3ccccc32)cc1	N
COc1cccc2c1C(=O)c1c(O)c3c(c(O)c1C2=O)C[C@@](O)(/C(C)=N/NC(=O)c1ccc(Cl)c(Cl)c1)C[C@@H]3OC1CC(N)C(O)C(C)O1 (some centres undefined)	Y
C=C(CN(C)C)C(=O)c1ccc(C(=O)C(=C)CN(C)C)cc1	N
COC(=O)C(NC(=O)CSc1nnc(COc2ccc(Cl)cc2)n1-c1ccccc1)C(C)C (centres undefined)	N
COc1cc(/C=C2\C(=O)N(Cc3ccccc3)C(c3ccccc3)S2(=O)=O)cc(OC)c1OC (centres undefined)	N

Tell me the assay call for `CCCCc1c2c(nc3c1CCc1cc4cc5c(nc4nc1-3)-c1nc3c(c(CCCC)c1CC5)CCCC3)CCCC2` please.
N

Now consider `CC(C)[Si](OC1=C(C(=O)Nc2ccccc2Cl)CCCCC1)(C(C)C)C(C)C` and answer again.
N

Try this molecule next: CN(C)c1ccc([S+]([O-])Nc2ccccc2)cc1 (centres undefined)
N

Moving on to `O=C(NN=C1CCCCC1)Nc1ccccc1Cl`
N

Can you handle OC12CC3c4ccccc4NC3C3Oc4cccc5c4C31CCN(CC1CC1)C2C5 (centres undefined) next?
N

Now try `Clc1nc(Nc2nc3ccccc3[nH]2)nc(Cl)c1Cc1ccccc1` .
N

----------
test system: HOP-62; test: NCI tumour cell line growth inhibition, 48 h
Active and inactive are the calls of the source. Rule as the data show it: active = GI50 up to about 1.1 µM and inactive = higher.
The reply should be one of these categories: T for active, F for inactive

Field: example entries. Status: answers known.
molecule	classification
CN1CC=C(c2cccn2C)CC1	F
O=C(NCCCCCCCCCCCCNC(=O)c1cccc2ccccc12)c1cccc2ccccc12	F
CC(=O)c1cccc(NCn2nnc3ccccc32)c1	F
O=C(O)CCSC(=O)Nc1cccc2ccccc12	F
O=C1C(C(O)(C(F)(F)F)C(F)(F)F)CCC1C(O)(C(F)(F)F)C(F)(F)F (configuration not stated)	T

Would you mind telling me which call this test gave `CCCc1ccc(OCC(=O)N/N=C/c2c(-c3ccccc3)[nH]c3ccccc23)cc1` ?
F

How about this molecule: `C#CCOCn1ccc(=O)[nH]c1=O`
F

`Cc1cc2c(=O)cc(-c3cccs3)oc2c(C(=O)O)c1C` ?
F

Try this molecule too: `NCCCc1c(-c2ccccc2)[nH]c(N)nc1=O`
F

Same thing, different molecule: CCOC(=O)C1Oc2ccc([N+](=O)[O-])c3c2C1(O)CCC3 (configuration not stated)
F

What would you report for `O=C1CCCc2ccc([N+](=O)[O-])c(O)c21` ?
F

Repeat with O=C1N(c2ccccc2)C(=O)C2(SC=NN2Cc2ccccc2)N1c1ccccc1 (configuration not stated)
F

----------
test system: NCI-H23; test: NCI tumour cell line growth inhibition, 48 h
Active and inactive are the calls of the source. Rule as the data show it: active = GI50 up to about 1.1 µM and inactive = higher.
experimentalEndpoint: GI50

compound	targetDesc	GI50
O=c1c2ccccc2nc2n1CCc1c-2[nH]c2ccc(Br)cc12	NCI-H23	> 100 µM (inactive)

Quick one: give me GI50 for each item below, same order please.
1. O=S1(=O)c2cnccc2N=C(NCc2ccccc2)N1c1ccccc1
2. O=NN(CCCl)C(=O)N[C@H]1CC[C@@H](C(=O)O)CC1

64.3 µM (inactive)
97.7 µM (inactive)

----------
For each record, write down the corresponding GI50.
system: UO-31; assay: NCI tumour cell line growth inhibition, 48 h
Calls of active or inactive are those of the source. Rule as the data show it: active = GI50 up to about 1.1 µM and inactive = higher.

compound	targetDesc	GI50
COC(=O)N1[C@H]2Cc3c(OC)c(C)c(OC)c(OC)c3[C@@H]1/C(=C\c1cc(OC)c(OC)c(C)c1OC)N(Cc1ccccc1)C2=O	UO-31	18.7 µM (inactive)

Please give GI50 for each item listed below.
1. Cc1nnc2sc(NN)nn12
2. CC1=C(C(=O)NCc2ccccc2)C(/C=C/c2ccccc2)C(C(=O)NCc2ccccc2)=C(C)N1
3. CC(C)Cn1cnc2c(SCc3ccc(Cl)cc3Cl)nc(N)nc21
4. COc1ccccc1C1=C2C(=O)N(C)C(c3ccccc3OC)=C2C(=O)N1C
5. C/C=C1/CC(C(=O)OC)N(C(=O)OCc2ccccc2)C1=S (stereo unspecified)

["> 100 µM (inactive)", "> 100 µM (inactive)", "23.3 µM (inactive)", "50.8 µM (inactive)", "> 100 µM (inactive)"]

Provide each entry's GI50 from the list below.
1. Cc1nn(C(=O)Cc2ccccc2)c2c1C(c1ccc(/C=C/c3ccccc3)cc1)SC(=N)N2 (stereo unspecified)
2. CC(C)CC1c2[nH]c3ccccc3c2C[C@H]2C(=O)NC(CCCCNC(=O)OC(C)(C)C)C(=O)N12 (stereo partly specified)
3. CC12OOC(c3ccccc31)c1c2ccc2ccccc12 (stereo unspecified)
4. CN1CC=C(c2cccn2C)CC1

> 100 µM (inactive)
38.1 µM (inactive)
9.55 µM (inactive)
> 100 µM (inactive)

----------
tested on: MDA-N; assay: NCI tumour cell line growth inhibition, 48 h
The source made the active and inactive calls. Cut-off read from the data, not from the text of the source: active = GI50 up to about 1.1 µM and inactive = higher.
experimentalEndpoint: GI50

The following compounds have reported results that may help.
compound	GI50
COC(CN(C(C)=O)C1CCC2(SCCS2)c2[nH]c3ccccc3c21)OC (centres undefined)	> 100 µM (inactive)
Clc1ccc(OCc2nnc(CCCCCCCCc3nnc(COc4ccc(Cl)cc4Cl)n3Nc3ccccc3)n2Nc2ccccc2)c(Cl)c1	9.93 µM (inactive)
O=C(O)c1ccc(C(=O)O)c(C(=O)Nc2ccc3c(c2)C(=O)c2ccccc2-3)c1	> 100 µM (inactive)
Cc1nn(C)c2nc3ccc(Cl)cc3c(-c3ccccc3)c12	> 100 µM (inactive)
O=C(O)CSCc1cc2c(O)c(c1)Cc1cc(CSCC(=O)O)cc(c1O)Cc1cc(CSCC(=O)O)cc(c1O)Cc1cc(CSCC(=O)O)cc(c1O)C2	> 100 µM (inactive)
CC1=NN=C(C)C1/N=N/c1ccc2[nH]c(C)nc2c1	19.8 µM (inactive)
[N-]=[N+]=Nc1c(C=O)c(=O)n2c3c(cccc13)CCC2	5.81 µM (inactive)
Cc1c(OCc2ccccc2)c(=O)ccn1CCc1c[nH]c2ccccc12	28.7 µM (inactive)

I'm curious: which GI50 was measured for NC[C@H]1Nc2ccccc2[C@@H](O)C1O (some centres undefined) tested on MDA-N?
> 100 µM (inactive)

----------
test system: SNB-19; assay: NCI tumour cell line growth inhibition, 48 h
The source made the active and inactive calls. Cut-off read from the data, not from the text of the source: active = GI50 up to about 1.1 µM and inactive = higher.
experimentalEndpoint: GI50

Solved cases (5 shown):
compound	targetDesc	GI50
CC1(C)O[C@@H](CO)[C@H]([C@@]23OC[C@H]4OC(C)(C)OC4[C@@H]2OC(C)(C)O3)O1 (some centres undefined)	SNB-19	> 100 µM (inactive)
C/C(=C/c1ccccc1)CN(C(=O)/C=C\Sc1ccccc1)C(C)(C)C	SNB-19	> 100 µM (inactive)
Clc1ccc(OCc2nnc(CCCCCCCCc3nnc(COc4ccc(Cl)cc4Cl)n3Nc3ccccc3)n2Nc2ccccc2)c(Cl)c1	SNB-19	17.7 µM (inactive)
COC(=O)C1CC2(C)C=CC1N(C(=O)OCc1ccccc1)C2 (centres undefined)	SNB-19	> 100 µM (inactive)
CCCc1ccc(OCC(=O)N/N=C/c2c(-c3ccccc3)[nH]c3ccccc23)cc1	SNB-19	35.8 µM (inactive)

Look up GI50 for the entries below, preserving their order.
1. CCOC(=O)CC1Nc2ccccc2C12CCc1c([nH]c3ccccc13)C2C(=O)OCC (centres undefined)
2. Brc1ccc2c(c1)C1(c3cc(Br)ccc3-2)c2cc(Br)ccc2-c2ccc(Br)cc21

["> 100 µM (inactive)", "> 100 µM (inactive)"]

# batch size: 2; output GI50 per entry
1. Cc1cc2c(=O)cc(-c3ccc(F)cc3)oc2c(C(=O)O)c1C
2. COc1ccc(/C=C2\CCC(C)C3=C2NC(=S)NC3c2ccc(OC)c(OC)c2)cc1OC (centres undefined)

1: > 100 µM (inactive); 2: 30.4 µM (inactive)
